- Test system: Green Peach Aphid (Myzus persicae)
- method: Green peach aphid foliar spray assay on cabbage
- Assay type: in vivo
- run_parameters: 72 h, 0.781 ppm, 3 days after spray, read-out: % Control at ppm, foliar spray, green peach aphid on cabbage
For each of the compounds below, state its pest or weed control at 0.781 ppm.

The compound listed as N#CN=S1(=O)CCCC1c1ccc(C(F)(F)F)nc1 (centres unmarked) shows pest or weed control at 0.781 ppm equal to < 50%

The compound listed as CC(c1ccc(C(C)(F)F)nc1)S(C)(=O)=NC#N (centres unmarked) shows pest or weed control at 0.781 ppm equal to 50 to 59%

The compound listed as CC(c1ccc(C(F)F)nc1)S(C)(=O)=NC#N (centres unmarked) shows pest or weed control at 0.781 ppm equal to < 50%

The compound listed as CC(c1ccc(C(F)(F)F)nc1)S(C)(=O)=N[N+](=O)[O-] (centres unmarked) shows pest or weed control at 0.781 ppm equal to 80 to 89%

The compound listed as CS(=O)(Cc1ccc(C(F)(F)F)nc1)=NC#N (centres unmarked) shows pest or weed control at 0.781 ppm equal to < 50%

====

- Tested on: Cotton Aphid (Aphis gossypii)
- method: Cotton aphid foliar spray assay on squash
- Assay type: in vivo
- run_parameters: 72 h, read-out: % Control of cotton aphid on squash (foliar spray)
For each of the compounds below, state its pest or weed control at 3.13 ppm.

The compound listed as N#CN=S1(=O)CCCC1Cc1ccc(C(F)(F)F)nc1 (stereo not shown) shows pest or weed control at 3.13 ppm equal to 70 to 79%

The compound listed as CC(c1ccc(C(Cl)(Cl)Cl)nc1)S(C)(=O)=NC#N (stereo not shown) shows pest or weed control at 3.13 ppm equal to 90 to 100%

The compound listed as CC(c1ccc(C(F)(F)Cl)nc1)S(C)(=O)=NC#N (stereo not shown) shows pest or weed control at 3.13 ppm equal to 90 to 100%

The compound listed as CC(c1ccc(C(F)(F)F)nc1)S(C)(=O)=NC#N (stereo not shown) shows pest or weed control at 3.13 ppm equal to 90 to 100%

Value source: patent US8193364B2
